test: Inhibition of AKT phosphorylation at Thr308 in human BT474 cells; format: cell-based; conditions: BT-474
Collected IC50 values appear next to each entry.

[
  {
    "smi": "NC1(c2ccc(-c3nc4ccccc4c(=O)n3-c3ccccc3)cc2)CCC1",
    "IC50 (µM)": 2.62
  },
  {
    "smi": "NC1(c2ccc(-n3c(-c4ccccc4)nc4ccccc4c3=O)cc2)CCC1",
    "IC50 (µM)": 5.9
  },
  {
    "smi": "NC1(c2ccc(-c3nn4cccc4cc3-c3ccccc3)cc2)CCC1",
    "IC50 (µM)": 2.43
  },
  {
    "smi": "NC1(c2ccc(-c3c(-c4ccccc4)ncc4nccn34)cc2)CCC1",
    "IC50 (µM)": 2.18
  },
  {
    "smi": "Cn1cnc2c(-c3ccc(C4(N)CCC4)cc3)c(-c3ccccc3)ccc21",
    "IC50 (µM)": 0.343
  },
  {
    "smi": "NC1(c2ccc(-c3ncc4cccnc4c3-c3ccccc3)cc2)CCC1",
    "IC50 (µM)": 0.167
  },
  {
    "smi": "NC1(c2ccc(-c3ncc4nccn4c3-c3ccccc3)cc2)CCC1",
    "IC50 (µM)": 0.386
  },
  {
    "smi": "NC1(c2ccc(-c3nc4ccccn4c3-c3ccccc3)cc2)CCC1",
    "IC50 (µM)": 0.182
  },
  {
    "smi": "NC1(c2ccc(-c3c(-c4ccccc4)ccc4ncnn34)cc2)CCC1",
    "IC50 (µM)": 0.369
  },
  {
    "smi": "NC1(c2ccc(-c3nn4ccc(=O)nc4cc3-c3ccccc3)cc2)CCC1",
    "IC50 (µM)": 1.61
  },
  {
    "smi": "NC1(c2ccc(-c3c(-c4ccccc4)ccn4ccnc34)cc2)CCC1",
    "IC50 (µM)": 0.324
  },
  {
    "smi": "NC1(c2ccc(-c3ncc4cnccc4c3-c3ccccc3)cc2)CCC1",
    "IC50 (µM)": 0.048
  },
  {
    "smi": "NC1(c2ccc(-c3ncc4cccn4c3-c3ccccc3)cc2)CCC1",
    "IC50 (µM)": 0.604
  },
  {
    "smi": "NC1(c2ccc(-c3nc4ccccc4cc3-c3ccccc3)cc2)CCC1",
    "IC50 (µM)": 0.557
  },
  {
    "smi": "NC1(c2ccc(-c3ncc4ccncc4c3-c3ccccc3)cc2)CCC1",
    "IC50 (µM)": 0.054
  },
  {
    "smi": "NC(=O)c1cnc(-c2ccc(C3(N)CCC3)cc2)c(-c2ccccc2)c1",
    "IC50 (µM)": 0.422
  },
  {
    "smi": "NC1(c2ccc(-c3nn4ccccc4c3-c3ccccc3)cc2)CCC1",
    "IC50 (µM)": 0.205
  },
  {
    "smi": "NC1(c2ccc(-c3nn4ccnc4cc3-c3ccccc3)cc2)CCC1",
    "IC50 (µM)": 0.391
  },
  {
    "smi": "NC(=O)c1ccn2c(-c3ccccc3)c(-c3ccc(C4(N)CCC4)cc3)nc2c1",
    "IC50 (µM)": 0.082
  },
  {
    "smi": "CCn1cnc2cnc(-c3ccc(C4(N)CCC4)cc3)c(-c3ccccc3)c21",
    "IC50 (µM)": 1.2
  },
  {
    "smi": "NC1(c2ccc(-c3ncc4ccccc4c3-c3ccccc3)cc2)CCC1",
    "IC50 (µM)": 0.535
  },
  {
    "smi": "NC1(c2ccc(-c3c(-c4ccccc4)ccc4ccnn34)cc2)CCC1",
    "IC50 (µM)": 1.19
  },
  {
    "smi": "NC1(c2ccc(-c3ncc4ncccc4c3-c3ccccc3)cc2)CCC1",
    "IC50 (µM)": 0.089
  },
  {
    "smi": "NC1(c2ccc(-c3c(-c4ccccc4)ccn4ncnc34)cc2)CCC1",
    "IC50 (µM)": 0.479
  }
]

====

Listed here: items and their measured log10(CLH).
system: Hepatocyte; experiment: Intrinsic clearance in Han Wistar rat hepatocytes assessed per 10^-6 cells
property: log10(CLH) (log10 of the value in µL/min)

[
  {
    "smi": "NC(=O)c1cnc(-c2ccc(C3(N)CCC3)cc2)c(-c2ccccc2)c1",
    "property": "log10(CLH)",
    "value.reported": 0.60
  },
  {
    "smi": "NC1(c2ccc(-c3nn4ccnc4cc3-c3ccccc3)cc2)CCC1",
    "property": "log10(CLH)",
    "value.reported": 2.44
  },
  {
    "smi": "NC1(c2ccc(-c3nc4ccccn4c3-c3ccccc3)cc2)CCC1",
    "property": "log10(CLH)",
    "value.reported": 2.46
  },
  {
    "smi": "NC1(c2ccc(-c3ncc4nccn4c3-c3ccccc3)cc2)CCC1",
    "property": "log10(CLH)",
    "value.reported": 1.20
  },
  {
    "smi": "NC1(c2ccc(-c3nc4ccccc4cc3-c3ccccc3)cc2)CCC1",
    "property": "log10(CLH)",
    "value.reported": 2.17
  }
]

====

experiment: Fraction unbound in Han Wistar rat plasma; type: ADME, cell-free

[
  {
    "smi": "NC1(c2ccc(-c3ncc4cnccc4c3-c3ccccc3)cc2)CCC1",
    "fraction unbound": 0.13
  },
  {
    "smi": "NC1(c2ccc(-c3nc4ccccn4c3-c3ccccc3)cc2)CCC1",
    "fraction unbound": 0.068
  },
  {
    "smi": "NC1(c2ccc(-c3nn4ccnc4cc3-c3ccccc3)cc2)CCC1",
    "fraction unbound": 0.123
  },
  {
    "smi": "NC1(c2ccc(-c3nc4ccccc4cc3-c3ccccc3)cc2)CCC1",
    "fraction unbound": 0.011
  },
  {
    "smi": "NC(=O)c1cnc(-c2ccc(C3(N)CCC3)cc2)c(-c2ccccc2)c1",
    "fraction unbound": 0.419
  },
  {
    "smi": "NC1(c2ccc(-c3ncc4nccn4c3-c3ccccc3)cc2)CCC1",
    "fraction unbound": 0.371
  },
  {
    "smi": "NC1(c2ccc(-c3ncc4ccncc4c3-c3ccccc3)cc2)CCC1",
    "fraction unbound": 0.105
  }
]

====

assay: Lipophilicity, log D of the compound; details: octanol/water
Items are presented alongside their recorded logD.
property: logD

[
  {
    "smi": "CCn1cnc2cnc(-c3ccc(C4(N)CCC4)cc3)c(-c3ccccc3)c21",
    "value.reported": 2
  },
  {
    "smi": "NC1(c2ccc(-c3ncc4cccnc4c3-c3ccccc3)cc2)CCC1",
    "value.reported": 1.7
  },
  {
    "smi": "NC1(c2ccc(-c3c(-c4ccccc4)ncc4nccn34)cc2)CCC1",
    "value.reported": 1.7
  },
  {
    "smi": "NC(=O)c1ccn2c(-c3ccccc3)c(-c3ccc(C4(N)CCC4)cc3)nc2c1",
    "value.reported": 2
  }
]

====

This document collects IC50 values reported for RAC-alpha serine/threonine-protein kinase (Homo sapiens, UniProt P31749).

[
  {
    "smi": "NC1(c2ccc(-c3nn4cccc4cc3-c3ccccc3)cc2)CCC1",
    "IC50": "0.926 µM"
  },
  {
    "smi": "NC1(c2ccc(-c3ncc4nccn4c3-c3ccccc3)cc2)CCC1",
    "IC50": "1.26 µM"
  },
  {
    "smi": "NC1(c2ccc(-c3ncc4ccncc4c3-c3ccccc3)cc2)CCC1",
    "IC50": "0.193 µM"
  },
  {
    "smi": "NC(=O)c1cnc(-c2ccc(C3(N)CCC3)cc2)c(-c2ccccc2)c1",
    "IC50": "1.04 µM"
  },
  {
    "smi": "NC1(c2ccc(-c3c(-c4ccccc4)ncc4nccn34)cc2)CCC1",
    "IC50": "5.4 µM"
  },
  {
    "smi": "NC1(c2ccc(-c3nn4ccc(=O)nc4cc3-c3ccccc3)cc2)CCC1",
    "IC50": "8.66 µM"
  },
  {
    "smi": "NC1(c2ccc(-c3nc4ccccc4c(=O)n3-c3ccccc3)cc2)CCC1",
    "IC50": "7.02 µM"
  },
  {
    "smi": "NC1(c2ccc(-n3c(-c4ccccc4)nc4ccccc4c3=O)cc2)CCC1",
    "IC50": "41.7 µM"
  },
  {
    "smi": "CCn1cnc2cnc(-c3ccc(C4(N)CCC4)cc3)c(-c3ccccc3)c21",
    "IC50": "8.98 µM"
  },
  {
    "smi": "NC(=O)c1ccn2c(-c3ccccc3)c(-c3ccc(C4(N)CCC4)cc3)nc2c1",
    "IC50": "0.348 µM"
  }
]

====

assay: Lipophilicity, log D of the compound; settings: octanol/water
// boundary case: logD equal to 2 maps to No; strictly smaller maps to Yes

[
  {
    "smi": "NC1(c2ccc(-c3nn4cccc4cc3-c3ccccc3)cc2)CCC1",
    "category": "No"
  },
  {
    "smi": "NC1(c2ccc(-c3ncc4ccncc4c3-c3ccccc3)cc2)CCC1",
    "category": "No"
  },
  {
    "smi": "NC1(c2ccc(-c3ncc4cccn4c3-c3ccccc3)cc2)CCC1",
    "category": "No"
  },
  {
    "smi": "NC1(c2ccc(-c3ncc4cnccc4c3-c3ccccc3)cc2)CCC1",
    "category": "No"
  },
  {
    "smi": "NC1(c2ccc(-c3nc4ccccc4c(=O)n3-c3ccccc3)cc2)CCC1",
    "category": "Yes"
  },
  {
    "smi": "NC1(c2ccc(-c3nc4ccccn4c3-c3ccccc3)cc2)CCC1",
    "category": "No"
  },
  {
    "smi": "NC1(c2ccc(-n3c(-c4ccccc4)nc4ccccc4c3=O)cc2)CCC1",
    "category": "Yes"
  },
  {
    "smi": "NC1(c2ccc(-c3nc4ccccc4cc3-c3ccccc3)cc2)CCC1",
    "category": "No"
  },
  {
    "smi": "NC1(c2ccc(-c3c(-c4ccccc4)ccn4ncnc34)cc2)CCC1",
    "category": "Yes"
  },
  {
    "smi": "NC1(c2ccc(-c3nn4ccc(=O)nc4cc3-c3ccccc3)cc2)CCC1",
    "category": "Yes"
  },
  {
    "smi": "NC1(c2ccc(-c3ncc4nccn4c3-c3ccccc3)cc2)CCC1",
    "category": "Yes"
  }
]
